The measured values listed here are drawn from patent US20120302748A1.

target: CYP1B1 (Homo sapiens, UniProt Q16678); test: Supersomal CYP1B1 fragmentation of coumarin model prodrugs (kinetic fluorimetry); type: biochemical; parameters: purchased BD Gentest, Oxford, UK; conditions: 10 μmol dm^−3 prodrug, 10 pmol enzyme, pH 7.4, 37° C.; mean ± standard deviation of three
Sequence (Q16678 whole entry, the tested form may be a part): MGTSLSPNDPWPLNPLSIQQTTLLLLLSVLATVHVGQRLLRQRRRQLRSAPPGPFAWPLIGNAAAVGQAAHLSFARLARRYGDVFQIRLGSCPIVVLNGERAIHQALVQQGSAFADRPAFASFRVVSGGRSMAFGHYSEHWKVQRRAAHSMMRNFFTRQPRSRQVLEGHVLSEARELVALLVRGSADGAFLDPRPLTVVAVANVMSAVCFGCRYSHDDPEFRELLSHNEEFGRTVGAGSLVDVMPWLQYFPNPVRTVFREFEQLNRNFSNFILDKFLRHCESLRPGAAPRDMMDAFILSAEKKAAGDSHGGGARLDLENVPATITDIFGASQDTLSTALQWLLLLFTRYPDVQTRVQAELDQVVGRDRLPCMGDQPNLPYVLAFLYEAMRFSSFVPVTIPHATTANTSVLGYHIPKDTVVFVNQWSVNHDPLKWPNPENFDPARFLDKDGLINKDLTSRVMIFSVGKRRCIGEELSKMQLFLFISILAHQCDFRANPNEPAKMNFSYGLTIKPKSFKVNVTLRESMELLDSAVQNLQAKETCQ

- compound: "COc1cc(OC)c2oc(COC(=O)Nc3ccc4c(C)cc(=O)oc4c3)cc2c1 [VG041-05]"
  Specific fragmentation activity CYP1B1: "no release"
- compound: "Cc1cc(=O)oc2cc(NC(=O)OCc3cc4ccccc4o3)ccc12 [SU018-03]"
  Specific fragmentation activity CYP1B1: "no release"
